# study system: T1, GFP-9S library array, motif 4 ND N98H;D124L (synthetic construct, N98H;D124L)
# T1 chain: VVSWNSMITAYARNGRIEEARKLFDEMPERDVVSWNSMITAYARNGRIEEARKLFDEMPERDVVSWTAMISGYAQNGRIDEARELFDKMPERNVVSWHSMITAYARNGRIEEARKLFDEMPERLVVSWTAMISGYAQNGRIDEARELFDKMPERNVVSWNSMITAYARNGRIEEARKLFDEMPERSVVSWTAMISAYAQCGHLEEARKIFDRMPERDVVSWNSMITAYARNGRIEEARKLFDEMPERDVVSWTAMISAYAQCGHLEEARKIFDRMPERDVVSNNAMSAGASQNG
# assay overview: high-throughput RNA pulldown from lysate on Ni-NTA beads; HRP: 50 mM Tris pH 8, 150 mM NaCl, 1 mM beta-mercaptoethanol, 50 ug/ml BSA, 3 ug/ml yeast RNA, 0.5% heparin; ITC and FP: Tris pH 8, 200 mM KCl, 5% glycerol; MST: 50 mM Tris pH 8, 200 mM NaCl, 1 mM DTT, BSA, heparin, 0.05% Tween 20
# measurement parameters: tags: N-terminal His-eGFP; label: 5' Cy5
Task for the reader: assign each of the following binders its reported Kd.
Note: unit nM is implicit; provide only the numeric part.

Reported Kd of AUUAGACGUGA (ssRNA) [Cy5-rpoA-G] : 55.6

The binder listed as AUUACACGUGA (ssRNA) [Cy5-rpoA] shows Kd equal to 60.1
